- System: MCF10A
- assay: SRB antiproliferative/antigrowth assay, non-cancer cells
- Format: cell-based, human
- measurement_context: Homo sapiens, MCF-10A, 48 h, SRB, 48 h post-treatment, non-cancer breast epithelial cells; read-out: GI50 MCF10A
The label is yes (1) for GI50 below 10 µM and no (0) for GI50 equal to or exceeding 10 µM.

*Q* Input O=[N+]([O-])c1cccc(S(=O)(=O)NCCCNc2ccnc3cc(C(F)(F)F)ccc23)c1 [Compound 39] ; condition: GI50 strictly below 10 µM. Does it hold?
*A* no (0)

*Q* Bench note: check whether O=S(=O)(NCCCNc1ccnc2cc(Cl)ccc12)c1ccc(Cl)cc1Cl [Compound 29] shows GI50 below 10 µM
*A* yes (1)

*Q* Below 10 µM on GI50? Entry Cc1ccc(S(=O)(=O)N2CCN(c3ccnc4cc(C(F)(F)F)ccc34)CC2)cc1 [Compound 17]
*A* no (0)

*Q* Is GI50 of COC(=O)c1sccc1S(=O)(=O)N1CCN(c2ccnc3cc(Cl)ccc23)CC1 [Compound 15] strictly below 10 µM?
*A* no (0)

*Q* Find out if reported GI50 for O=S(=O)(NCCCNc1ccnc2cc(C(F)(F)F)ccc12)c1ccc(-c2ccccc2)cc1 [Compound 36] is less than 10 µM
*A* yes (1)

*Q* Identify whether the compound CS(=O)(=O)NCCCNc1ccnc2cc(Cl)ccc12 [Compound 25] records GI50 below 10 µM.
*A* no (0)
